target: human full-length recombinant PKC βII (Homo sapiens); construct: Active human full-length recombinant PKC βII; purchased Invitrogen GmbH, Darmstadt, Germany; experiment: Determination of PKC βII inhibition (Caliper mobility shift kinase assay); format: biochemical; details: final compound concentration 1.14 μM (±0.15 μM); 60 min incubation at 32° C.
Sequence (P05771 1-673 isoform P05771-2): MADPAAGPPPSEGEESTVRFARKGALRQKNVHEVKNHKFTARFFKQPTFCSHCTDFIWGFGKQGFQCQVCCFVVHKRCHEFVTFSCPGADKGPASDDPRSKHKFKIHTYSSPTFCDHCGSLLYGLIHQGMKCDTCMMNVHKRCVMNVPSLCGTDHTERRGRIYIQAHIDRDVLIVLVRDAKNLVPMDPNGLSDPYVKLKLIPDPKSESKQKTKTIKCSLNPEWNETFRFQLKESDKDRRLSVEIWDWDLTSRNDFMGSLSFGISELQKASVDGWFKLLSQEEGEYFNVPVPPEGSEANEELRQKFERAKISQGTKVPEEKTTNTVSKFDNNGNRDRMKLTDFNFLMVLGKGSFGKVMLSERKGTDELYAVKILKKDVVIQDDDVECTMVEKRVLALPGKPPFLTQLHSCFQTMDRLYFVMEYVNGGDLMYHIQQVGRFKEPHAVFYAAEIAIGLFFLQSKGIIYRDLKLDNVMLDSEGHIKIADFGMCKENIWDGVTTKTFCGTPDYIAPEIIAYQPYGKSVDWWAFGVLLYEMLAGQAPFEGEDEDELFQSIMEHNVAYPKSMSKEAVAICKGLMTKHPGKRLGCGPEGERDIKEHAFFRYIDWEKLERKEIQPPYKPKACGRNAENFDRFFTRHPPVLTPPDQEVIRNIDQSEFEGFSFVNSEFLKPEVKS
measurement.name: inhibition at 1.14 µM (%)

IN: Name the reported inhibition at 1.14 µM value associated with the compound Cc1n[nH]c2nc(-c3ccc(O)cc3F)cc(CN3CCNCC3c3cc(F)cc(F)c3)c12 (stereo not shown)
OUT: 81

IN: Query (compound): Cc1n[nH]c2nc(-c3ccc(O)cc3F)cc(CN3CCNC[C@@]3(C)c3ccccc3)c12 ; field requested: inhibition at 1.14 µM
OUT: 84

IN: May I ask what inhibition at 1.14 µM has been recorded for Cc1n[nH]c2nc(-c3ccc(O)cc3F)cc(CN3CC4(CCCC4)NCC3(C)C)c12 ?
OUT: 94

(I) Cc1n[nH]c2nc(-c3ccc(O)cc3F)cc(CN3C[C@](C)(C4CC4)NCC3(C)C)c12
(II) Cc1n[nH]c2nc(-c3ccc(O)cc3F)cc(CN3CCNCC3c3ccc(C(F)(F)F)cc3)c12 (stereo not shown)
IN: Exercise: compare I and II ; which one has the greater inhibition at 1.14 µM? // caller expects the label of the chosen entry
OUT: I

(A) Cc1n[nH]c2nc(-c3ccc(O)cc3F)cc(CN3C[C@@H](C)NCC34CCCC4)c12
(B) Cc1n[nH]c2nc(-c3ccc(O)cc3F)cc(CN3CC(C)(C)NC[C@@H]3C(C)C)c12
IN: Between A and B , whose recorded inhibition at 1.14 µM is greater? Your answer should be the label of the entry you select.
OUT: B
(B: 103%, A: 71%)

(I) Cc1n[nH]c2nc(-c3ccc(O)cc3F)cc(CN3CCNCC34CC4)c12
(II) Cc1n[nH]c2nc(-c3ccc(O)cc3F)cc(CN3CCNC[C@@H]3c3ccc(C(C)C)cc3)c12
IN: Could you kindly indicate whether I or II has the higher inhibition at 1.14 µM value? Respond using the label that marks the chosen record.
OUT: I

Data provenance is patent US9133181B2.
